Taken from a melting point compilation (Tetko et al.).

Measured property: melting point (°C)

Sample answers from the record:
{"columns": ["Compound", "Unit text", "melting point"],
 "data": [
  ["O=c1c2ccccc2c(=O)n2n1C1C=CC2C1", "°C", 231],
  ["Cc1cccc(N/N=C2/C(=O)N(c3ccccc3)N=C2C(F)(F)F)c1", "°C", 161],
  ["O=C1/C(=N/Nc2cccnc2)C(C(F)(F)F)=NN1c1ccccc1", "°C", 161],
  ["CC(C1CC1)C(O)(Cn1cncn1)c1ccc(Cl)cc1 (configuration not stated)", "°C", 108],
  ["COC(=O)c1ccccc1C(=O)c1ccccc1", "°C", 52],
  ["CCON=C(CC)C1=C(O)CC(c2c(C)cc(C)cc2C)CC1=O (configuration not stated)", "°C", 110]
]}

(a) FC(F)(F)CCCl
(b) OCCSCCCCCCCCCCSCCO
(c) C#CC1(O)CCC2C3C(C)CC4=C(CCC(=O)C4)C3CCC21C (configuration not stated)
(d) COc1cccc(P(c2cccc(OC)c2)c2cccc(OC)c2)c1
Form: Sort by [melting point] Order [ ascending ] Please list the labels in the order you were asked to rank them. a, b, d, c
